test_description: self-splicing fitness, log relative to wild type (ln ratio); higher = more splicing; Tetrahymena group I intron in knt gene, E. coli kanamycin selection, DiMSum; sequences stand for … in CUCUCU…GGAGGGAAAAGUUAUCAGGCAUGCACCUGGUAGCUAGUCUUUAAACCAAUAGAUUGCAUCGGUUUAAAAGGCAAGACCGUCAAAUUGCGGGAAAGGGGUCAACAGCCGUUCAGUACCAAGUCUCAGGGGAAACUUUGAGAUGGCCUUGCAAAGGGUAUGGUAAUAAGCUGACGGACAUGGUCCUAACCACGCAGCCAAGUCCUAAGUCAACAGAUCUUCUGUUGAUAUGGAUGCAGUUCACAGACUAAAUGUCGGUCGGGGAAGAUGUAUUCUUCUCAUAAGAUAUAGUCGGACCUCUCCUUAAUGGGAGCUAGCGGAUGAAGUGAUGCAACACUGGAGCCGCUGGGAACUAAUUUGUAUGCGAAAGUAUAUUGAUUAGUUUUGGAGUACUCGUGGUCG;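 also: selection with 25 µg/mL kanamycin versus none on LB agar overnight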
run_conditions: 37 °C
# Lookup of reported self-splicing fitness (ln) keyed by entry

{"chain": "GCUAAGCAAUAUUACGGGAG", "self-splicing fitness (ln)": -1.28}
{"chain": "AUGGAGCAAUAUUACGUUUC", "self-splicing fitness (ln)": -2.68}
{"chain": "AGCGAGCAAUAUUACGGCGG", "self-splicing fitness (ln)": -1.8}
{"chain": "AAGGAGCAAUAUUACGGUUU", "self-splicing fitness (ln)": -1.07}
{"chain": "GCUAAGCAAUAUUACGAUAA", "self-splicing fitness (ln)": -1.1}

*Q* Please list self-splicing fitness (ln) recorded for the sequence GUCGAGCAAUAUUACGCGCU
*A* -1.17

*Q* Please list self-splicing fitness (ln) recorded for the sequence CCGCAGCAAUAUUACGAAUA
*A* -2.62

*Q* Please list self-splicing fitness (ln) recorded for the sequence CAUAAGCAAUAUUACGAGGG
*A* -2.53

*Q* Please list self-splicing fitness (ln) recorded for the sequence GCAAAGCAAUAUUACGUAUA
*A* -1.48

*Q* Please list self-splicing fitness (ln) recorded for the sequence CCCAAGCAAUAUUACGAUCU
*A* -3.53

*Q* Please list self-splicing fitness (ln) recorded for the sequence GUACAGCAAUAUUACGACAA
*A* -0.826

*Q* Please list self-splicing fitness (ln) recorded for the sequence AAUCAGCAAUAUUACGACUU
*A* 0.142

*Q* Please list self-splicing fitness (ln) recorded for the sequence UCCUAGCAAUAUUACGUAAU
*A* -2.37

---

# Lookup of reported self-splicing fitness (ln) keyed by entry
test_description: self-splicing fitness, log relative to wild type (ln ratio); higher = more splicing; Tetrahymena group I intron in knt gene, E. coli kanamycin selection, DiMSum; sequences stand for … in CUCUCU…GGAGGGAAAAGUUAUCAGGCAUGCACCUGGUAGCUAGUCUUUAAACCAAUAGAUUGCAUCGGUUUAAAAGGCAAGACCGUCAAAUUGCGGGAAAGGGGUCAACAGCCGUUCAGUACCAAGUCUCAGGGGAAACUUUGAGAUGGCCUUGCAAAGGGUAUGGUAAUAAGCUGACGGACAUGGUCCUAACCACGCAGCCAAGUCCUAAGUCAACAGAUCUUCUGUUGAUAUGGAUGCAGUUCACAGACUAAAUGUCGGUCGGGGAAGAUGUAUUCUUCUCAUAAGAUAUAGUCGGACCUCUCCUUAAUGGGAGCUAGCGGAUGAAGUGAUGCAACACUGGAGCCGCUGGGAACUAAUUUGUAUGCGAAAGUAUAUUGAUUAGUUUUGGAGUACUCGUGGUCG
run_conditions: 37 °C
Please give the numeric answer without any surrounding text.

Answered examples (5):
{"chain": "GAUUAGCAAUAUUACGCAAA", "self-splicing fitness (ln)": -2.24}
{"chain": "GCGCAGCAAUAUUACGUGUG", "self-splicing fitness (ln)": -2.65}
{"chain": "UGACAGCAAUAUUACGUCAG", "self-splicing fitness (ln)": -1.75}
{"chain": "UAGCAGCAAUAUUACGUGAG", "self-splicing fitness (ln)": -0.228}
{"chain": "CGUGAGCAAUAUUACGGUAA", "self-splicing fitness (ln)": -2.41}

*Q* Please list self-splicing fitness (ln) recorded for the sequence UUUGAGCAAUAUUACGGAAC
*A* -1.2

*Q* Please list self-splicing fitness (ln) recorded for the sequence CAGCAGCAAUAUUACGCCAA
*A* -1.87

*Q* Please list self-splicing fitness (ln) recorded for the sequence GCGAAGCAAUAUUACGACGU
*A* -2.02

---

test_description: self-splicing fitness, log relative to wild type (ln ratio); higher = more splicing; Tetrahymena group I intron in knt gene, E. coli kanamycin selection, DiMSum; sequences stand for … in CUCUCU…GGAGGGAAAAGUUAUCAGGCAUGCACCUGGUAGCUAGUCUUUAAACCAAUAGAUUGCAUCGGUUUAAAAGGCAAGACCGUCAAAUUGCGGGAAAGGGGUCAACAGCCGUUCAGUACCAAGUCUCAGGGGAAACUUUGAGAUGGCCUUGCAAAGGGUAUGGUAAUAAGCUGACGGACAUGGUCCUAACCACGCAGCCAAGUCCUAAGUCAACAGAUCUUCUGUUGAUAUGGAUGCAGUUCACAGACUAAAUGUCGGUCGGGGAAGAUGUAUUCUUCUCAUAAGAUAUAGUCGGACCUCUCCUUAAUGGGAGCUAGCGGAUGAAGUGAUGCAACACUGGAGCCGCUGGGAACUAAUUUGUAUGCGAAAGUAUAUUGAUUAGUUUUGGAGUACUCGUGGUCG
run_conditions: 37 °C
reported_metric: self-splicing fitness (ln)
Please give the numeric answer without any surrounding text.

Answered examples (6):
{"chain": "AGCCAGCAAUAUUACGGUCA", "measured": 0.4}
{"chain": "CCGCAGCAAUAUUACGCUUA", "measured": -2.9}
{"chain": "CCAGAGCAAUAUUACGCACC", "measured": -2.37}
{"chain": "UACAAGCAAUAUUACGUGAG", "measured": -1.91}
{"chain": "UCAAAGCAAUAUUACGGAUC", "measured": -3.23}
{"chain": "CAAGAGCAAUAUUACGGUGU", "measured": -2.08}

*Q* Please list self-splicing fitness (ln) recorded for the sequence AAACAGCAAUAUUACGAUUU
*A* 0.219

*Q* Please list self-splicing fitness (ln) recorded for the sequence GUUGAGCAAUAUUACGGGCU
*A* -2.23

*Q* Please list self-splicing fitness (ln) recorded for the sequence AGCGAGCAAUAUUACGUCCC
*A* -0.699

---

test_description: self-splicing fitness, log relative to wild type (ln ratio); higher = more splicing; Tetrahymena group I intron in knt gene, E. coli kanamycin selection, DiMSum; sequences stand for … in CUCUCU…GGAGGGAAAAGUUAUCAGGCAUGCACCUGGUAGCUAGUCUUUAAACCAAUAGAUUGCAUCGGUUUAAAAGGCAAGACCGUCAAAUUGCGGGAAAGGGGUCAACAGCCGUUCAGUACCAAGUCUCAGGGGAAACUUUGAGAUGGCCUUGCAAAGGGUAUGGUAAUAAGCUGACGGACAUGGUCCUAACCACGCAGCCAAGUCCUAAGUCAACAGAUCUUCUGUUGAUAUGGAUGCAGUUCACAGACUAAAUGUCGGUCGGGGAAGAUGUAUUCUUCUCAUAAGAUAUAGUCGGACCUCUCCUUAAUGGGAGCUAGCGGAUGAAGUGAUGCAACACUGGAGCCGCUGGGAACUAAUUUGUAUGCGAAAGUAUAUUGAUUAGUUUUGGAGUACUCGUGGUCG
run_conditions: 37 °C
reported_metric: self-splicing fitness (ln)
Please give the numeric answer without any surrounding text.

Answered examples (5):
{"chain": "UAGAAGCAAUAUUACGGGGC", "self-splicing fitness (ln)": -1.6}
{"chain": "GAUAAGCAAUAUUACGGAUG", "self-splicing fitness (ln)": -1}
{"chain": "CACAAGCAAUAUUACGGAUA", "self-splicing fitness (ln)": -2.4}
{"chain": "CGCUAGCAAUAUUACGACGU", "self-splicing fitness (ln)": -0.355}
{"chain": "GUCCAGCAAUAUUACGCGUU", "self-splicing fitness (ln)": 0.304}

*Q* Please list self-splicing fitness (ln) recorded for the sequence ACCUAGCAAUAUUACGUGUC
*A* -2.24

*Q* Please list self-splicing fitness (ln) recorded for the sequence GCCGAGCAAUAUUACGCAAG
*A* -1.25

*Q* Please list self-splicing fitness (ln) recorded for the sequence GAAUAGCAAUAUUACGGCUC
*A* 0.374

*Q* Please list self-splicing fitness (ln) recorded for the sequence UGCUAGCAAUAUUACGUUCC
*A* -0.823

*Q* Please list self-splicing fitness (ln) recorded for the sequence GCGAAGCAAUAUUACGGUAA
*A* -1.65

*Q* Please list self-splicing fitness (ln) recorded for the sequence AAUAAGCAAUAUUACGUAAC
*A* -1.85

*Q* Please list self-splicing fitness (ln) recorded for the sequence CCAUAGCAAUAUUACGAGAC
*A* -0.492

*Q* Please list self-splicing fitness (ln) recorded for the sequence GAGCAGCAAUAUUACGCGUA
*A* -0.959

*Q* Please list self-splicing fitness (ln) recorded for the sequence GGAUAGCAAUAUUACGUGUU
*A* -1.63

*Q* Please list self-splicing fitness (ln) recorded for the sequence AUAUAGCAAUAUUACGGAGU
*A* -1.82

*Q* Please list self-splicing fitness (ln) recorded for the sequence CCAUAGCAAUAUUACGUUAC
*A* -3.54

*Q* Please list self-splicing fitness (ln) recorded for the sequence UCACAGCAAUAUUACGAGAA
*A* -1.68

*Q* Please list self-splicing fitness (ln) recorded for the sequence CUCUAGCAAUAUUACGGACA
*A* -2.66
